IC50 for UniProt:P51449, merged from several publications.
measurement_label: IC50 (nM)

1. CC1(C)[C@@H]2CC[C@@]1(CN1CCN(CCN3CCOCC3)C1=O)c1nnc(-c3ccccc3F)cc12
2. CN(CCO)C(=O)c1cncc([C@@]23CC[C@@H](c4cc(-c5c(F)cccc5F)nnc42)C3(C)C)n1
3. C[C@H]1CC[C@H](c2ccccc2)S(=O)(=O)N1Cc1cc(F)c([C@](C)(CO)C(N)=O)cc1F
List from greatest to least IC50. Present the labels in the sequence the task asks for.
1, 2, 3
(1: 643 nM, 2: 40.8 nM, 3: 18.7 nM)

---

pIC50: −log10 of the molar value.
pIC50 for RORc (Homo sapiens, UniProt P51449), merged from several publications.
measurement_label: pIC50

Below, each entry is followed by its recorded pIC50 result.
COC(=O)c1cncc([C@@]23CC[C@@H](c4cc(-c5c(F)cccc5F)nnc42)C3(C)C)n1 : 8.11
CC1(C)[C@H]2CC[C@]1(c1cccc(-c3nc(C4(O)CC4)n[nH]3)n1)c1nnc(-c3c(F)cccc3F)cc12 : 8.04
CC1(C)[C@H]2CC[C@]1(c1nc(C(N)=O)ncc1F)c1nnc(-c3c(F)cccc3F)cc12 : 7.64

A. CC1(C)[C@H]2CC[C@]1(Oc1cccnn1)c1nnc(-c3c(F)cccc3F)cc12
B. CC1(C)[C@H]2CC[C@]1(c1cncc(-c3n[nH]c(=O)[nH]3)n1)c1nnc(-c3c(F)cccc3F)cc12
Please indicate which entry, A or B , has the lower recorded pIC50 value. Bench note: the answer is the label of the chosen record.
A

I. Cc1nc(C#N)ncc1[C@@]12CC[C@@H](c3cc(-c4c(F)cccc4F)nnc31)C2(C)C
II. CC(=O)N1CCN(c2ccc(S(=O)(=O)N(Cc3ccccc3C(F)(F)F)C(C)(C)C)cc2)CC1
III. CC1(C)[C@H]2CC[C@]1(c1cncc(C(=O)NCCO)c1)c1nnc(-c3c(F)cccc3F)cc12
IV. CN1CCN(C[C@]23CC[C@H](c4cc(-c5ccccc5F)nnc42)C3(C)C)C1=O
Order the 4 molecules from highest to lowest pIC50. Present the labels in the sequence the task asks for.
III, II, I, IV
